From: PubChem BioAssay AID1159580

# ASSAY_TEXT: chemical genetic growth profiling, strain panel (AID 1159580);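 also: tested at 20 µM; growth read once vehicle control cultures reached saturation at 30 °C; 1 = growth at the plate median or of vehicle wells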
# TEST_SETTINGS: S. cerevisiae deletion strains, growth OD, locus YMR277W, strain FCP1, stronger effect = lower value
Out of some 5,500 compounds screened, about 2,000 (36%) were called active. Inconclusive results (about 18%) are left out. The list shows a part of the results.
Below is a list of entries, each paired with its recorded normalized growth value.
MEASURED_ATTRIBUTE: normalized growth

| CHEMICAL_SMILES | VALUE_MEASURED |
| --- | --- |
| CN(C)/C=C1\CSc2ccc(Cl)cc2C1=O | 0.943 |
| O=c1cc(CSc2ccc(Cl)cc2)c2ccc(O)cc2o1 | 0.928 |
| O=S(=O)(Nc1ccccc1Sc1c(Cl)cncc1Cl)c1ccc(Cl)cc1 | 0.978 |

* * *

# ASSAY_TEXT: chemical genetic growth profiling, strain panel (AID 1159580);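 also: tested at 20 µM; growth read once vehicle control cultures reached saturation at 30 °C; 1 = growth at the plate median or of vehicle wells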
# TEST_SETTINGS: S. cerevisiae deletion strains, growth OD, locus YMR125W, strain sto1, stronger effect = lower value
About 2,000 (36%) of roughly 5,500 compounds were called active. Another 18% or so got no clear call; they are omitted. This is one part of the list.
Below is a list of entries, each paired with its recorded normalized growth value.
MEASURED_ATTRIBUTE: normalized growth

| MOLECULE | MEASURED_ATTRIBUTE | VALUE_MEASURED |
| --- | --- | --- |
| CCCc1nn(C)c2c(=O)[nH]c(-c3cc(S(=O)(=O)N4CCN(C)CC4)ccc3OCC)nc12 | normalized growth | 0.981 |
| COc1ccc(-c2cc(=O)c3c(OC)c(OC)c(OC)c(OC)c3o2)cc1OC | normalized growth | 1 |
| Oc1ccc([C@H]2Oc3cc(O)cc(O)c3C[C@H]2O)cc1 | normalized growth | 0.99 |
| COc1ccc(-c2cc(=O)c3c(O)cc(O)cc3o2)cc1 | normalized growth | 0.979 |
| CCCc1nc(C)c2c(=O)[nH]c(-c3cc(S(=O)(=O)N4CCN(CC)CC4)ccc3OCC)nn12 | normalized growth | 0.969 |
| COC1C(O)C(O[C@H]2CC[C@]3(C=O)C4C(CC[C@]3(O)C2)[C@@]2(O)CC[C@H](C3=CC(=O)OC3)[C@@]2(C)C[C@H]4OC(C)=O)OC(C)C1OC(C)=O (stereo partly drawn) | normalized growth | 1.02 |
| C[C@]12CCC3C(CC[C@]4(O)C[C@@H](O)CC[C@]34C=O)[C@@]1(O)CCC2C1=CC(=O)OC1 (stereo partly drawn) | normalized growth | 0.96 |
| O=c1c(O)cc([C@H]2Oc3cc(O)cc(O)c3C[C@H]2O)cc2c([C@H]3Oc4cc(O)cc(O)c4C[C@H]3O)cc(O)c(O)c12 | normalized growth | 1.03 |

* * *

# ASSAY_TEXT: chemical genetic growth profiling, strain panel (AID 1159580);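 also: tested at 20 µM; growth read once vehicle control cultures reached saturation at 30 °C; 1 = growth at the plate median or of vehicle wells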
# TEST_SETTINGS: S. cerevisiae deletion strains, growth OD, locus YNL298W, strain CLA4
In all, about 5,500 compounds went through this assay and about 2,000 (36%) were called active. Roughly 18% stayed inconclusive and do not appear here. No stated cut-off is given here; in the data, active means normalized growth mostly below about 0.91 (no sharp cut-off); inconclusive means no clear call, values can overlap the other calls; inactive means mostly above about 0.92. Some of the results follow.
Classes used: active, inactive

| MOLECULE | LABEL |
| --- | --- |
| C[C@@H]1CCC2[C@](C)(CO)[C@@H](O)CC[C@]2(C)[C@@]12CC[C@@](CO)(CCO)O2 (stereo partly specified) | inactive |
| CC1(C)S[C@@H]2C(N3C(=O)[C@@H](c4ccccc4)NC3(C)C)C(=O)N2[C@H]1C(=O)O (stereo partly specified) | inactive |
| COc1cc(C(=O)O)cc(OC)c1OC | inactive |
| NC(N)=Nc1ccc(Cl)cc1 | inactive |
| COc1cc(C(=O)N2CCOCC2)cc(OC)c1OC | active |
| N#Cc1c(Cl)cccc1Cl | inactive |
